# Test system: HepaRG
# assay procedure: LDH release cytotoxicity, % of total lysis control; higher = more cytotoxic
# experimental parameters: 10 µM; 48 h
Give LDH release cytotoxicity for every item shown.
Your answer should be a number followed by the unit of measure.

Completed entries (count: 3):
{"molecule": "ClC1=C(Cl)C2(Cl)C3C(Cl)C(Cl)CC3C1(Cl)C2(Cl)Cl (centres undefined) [Chlordane]", "LDH release cytotoxicity": "-0.57%"}
{"molecule": "CN(C)c1ccc(N=NS(=O)(=O)O)cc1 [Fenaminosulf]", "LDH release cytotoxicity": "-3.4%"}
{"molecule": "O=NO [Sodium nitrite]", "LDH release cytotoxicity": "-0.549%"}

Query molecule follows.
Return reported LDH release cytotoxicity; argument: c1cc2ccc3cccc4ccc(c1)c2c34 [Pyrene]
-0.0329%

---

Assignment: determine reported LDH release cytotoxicity for the given compounds.
# Test system: HepaRG
# assay procedure: LDH release cytotoxicity, % of total lysis control; higher = more cytotoxic
# experimental parameters: 10 µM; 48 h
Give bare numbers, in %.

Here is how some compounds turned out for LDH release cytotoxicity.
{"compound": "Cc1ccc(S(=O)(=O)NC(=O)NN2CCCCCC2)cc1 [Tolazamide]", "LDH release cytotoxicity / %": -0.378}
{"compound": "CN1COCN(Cc2cnc(Cl)s2)C1=N[N+](=O)[O-]", "LDH release cytotoxicity / %": 0.119}
{"compound": "CC(=O)CC(c1ccccc1)C1C(=O)Oc2ccccc2C1=O (configuration not stated)", "LDH release cytotoxicity / %": -0.731}
{"compound": "OCC(O)CO", "LDH release cytotoxicity / %": -1.14}
{"compound": "CC(C)=CC1C(C(=O)OCc2coc(Cc3ccccc3)c2)C1(C)C (configuration not stated)", "LDH release cytotoxicity / %": -0.19}

Hi there! I need LDH release cytotoxicity for each item below, if you can.
1. CNS(=O)(=O)c1cc(C(=O)N2CCC(CCN3C4CCC3CC(n3c(C)nc5ccccc53)C4)(c3cccc(F)c3)CC2)c(Cl)cc1F (configuration not stated)
2. CON=C(C1=NOCCO1)c1ccccc1Oc1ncnc(Oc2ccccc2Cl)c1F
3. Cc1ccc(N)cc1
4. O=c1n(Cl)c(=O)n(Cl)c(=O)n1Cl
5. CSC(C)(C)CN=O
6. CCCCN(CCCC)SN(C)C(=O)Oc1cccc2c1OC(C)(C)C2
7. Oc1ccccc1O
8. NCc1cccc(C2CCN(C(=O)c3ccc(C#Cc4ccccc4F)o3)CC2)c1

[-0.27, -0.0116, -1.12, 1.48, 0.43, 0.717, -2.31, 0.359]

I have 2 compounds here; please give me LDH release cytotoxicity for each one.
1. COC(=O)c1ccccc1C(=O)O [Monomethyl phthalate]
2. O=C1N=CC(F)C(=O)N1 (configuration not stated)

1: -1.97; 2: -1.56

---

Task for the reader: assign each of the following compounds its reported LDH release cytotoxicity.
# Test system: HepaRG
# assay procedure: LDH release cytotoxicity, % of total lysis control; higher = more cytotoxic
# experimental parameters: 10 µM; 48 h
Give bare numbers, in %.

Look over these answered cases.
{"compound": "COC(=O)c1ccccc1O [Methyl salicylate]", "measured target": "HepaRG", "readout name": "LDH release cytotoxicity", "numeric readout": -0.567}
{"compound": "CCOP(=S)(OCC)SCn1c(=O)oc2cc(Cl)ccc21", "measured target": "HepaRG", "readout name": "LDH release cytotoxicity", "numeric readout": -2.4}
{"compound": "Cc1c2ccccc2c(C)c2c1ccc1ccccc12", "measured target": "HepaRG", "readout name": "LDH release cytotoxicity", "numeric readout": -1.64}

Items follow; give LDH release cytotoxicity for each.
1. COC(=O)c1c(Cl)c(Cl)c(C(=O)OC)c(Cl)c1Cl
2. Brc1ccc(Oc2ccccc2)cc1

0.0929
-0.841

Lab note: each compound below needs its LDH release cytotoxicity filled in.
1. CCOC(=O)c1ccc(O)cc1
2. CC(Oc1ccc(CNC(=O)c2cccnc2Oc2ccc3c(c2)OCO3)c(F)c1)C(=O)O (stereo not drawn)

1. -1.05
2. -0.895

---

Please go through the items and note down their LDH release cytotoxicity.
# System: HepaRG
# assay procedure: LDH release cytotoxicity, % of total lysis control; higher = more cytotoxic
# experimental parameters: 0.3162278 µM; 48 h
Give bare numbers, in %.

Sample records with LDH release cytotoxicity:
{"compound": "Cc1cccc(N)c1", "LDH release cytotoxicity / %": -1}
{"compound": "O=[N+]([O-])c1cc(C(F)(F)F)c(Cl)c([N+](=O)[O-])c1Nc1ncc(C(F)(F)F)cc1Cl", "LDH release cytotoxicity / %": -1.08}
{"compound": "CCC(C)C(=O)OC1CC(O)C=C2C=CC(C)C(CCC(O)CC(O)CC(=O)O)C21 (configuration not stated) [Pravastatin sodium]", "LDH release cytotoxicity / %": -0.491}
{"compound": "COC(=O)CCC(=O)OC [Dimethyl succinate]", "LDH release cytotoxicity / %": -1.76}
{"compound": "ClC1=C(Cl)C2(Cl)C3C4OC4C(Cl)C3C1(Cl)C2(Cl)Cl (configuration not stated) [Heptachlor epoxide B]", "LDH release cytotoxicity / %": -4.44}

I need LDH release cytotoxicity for every entry listed below, if you could help.
1. Nc1cccc(N)c1
2. Clc1cc(Cl)c2c(c1)N=C1CCCCCN1C2

[-1.93, -0.748]

---

Kindly supply the reported LDH release cytotoxicity values for the records listed here.
# System: HepaRG
# assay procedure: LDH release cytotoxicity, % of total lysis control; higher = more cytotoxic
# experimental parameters: 100 µM; 48 h
Answers are plain numbers, in %.

# example entries with known answers
{"compound": "CCOP(=S)(OCC)Oc1cc(C)nc(C(C)C)n1 [Diazinon]", "LDH release cytotoxicity / %": 0.528}
{"compound": "CN(C)c1nc(=O)n(C2CCCCC2)c(=O)n1C [Hexazinone]", "LDH release cytotoxicity / %": 0.813}
{"compound": "CC(C)CCCCCCOC(=O)C1CCCCC1C(=O)OCCCCCCC(C)C (stereo not given) [Diisononyl cyclohexane-1,2-dicarboxylate]", "LDH release cytotoxicity / %": 1.07}
{"compound": "CCSC(=O)N1CCCCCC1 [Molinate]", "LDH release cytotoxicity / %": 1.3}

Attention now shifts to the item below.
Which value of LDH release cytotoxicity has been reported for O=C1C(=O)C(c2ccc(O)c(O)c2)Oc2cc(O)cc(O)c21 (stereo not given) [Quercetin] in the records?
10.6

---

# Tested on: HepaRG
# assay procedure: LDH release cytotoxicity, % of total lysis control; higher = more cytotoxic
# experimental parameters: 3.16228 µM; 48 h
readout name: LDH release cytotoxicity (%)
Give bare numbers, in %.

// worked examples, LDH release cytotoxicity included
{"compound": "O=C1c2ccccc2C(=O)N1SC(Cl)(Cl)Cl [Folpet]", "LDH release cytotoxicity / %": -1.73}
{"compound": "COc1cccc(C(O)C2CCN(CCc3ccc(F)cc3)CC2)c1OC (stereo not given) [Volinanserin]", "LDH release cytotoxicity / %": -0.0858}
{"compound": "CC12CC1(C)C(=O)N(c1cc(Cl)cc(Cl)c1)C2=O (stereo not given) [Procymidone]", "LDH release cytotoxicity / %": -2.76}
{"compound": "O=C(NC1CN2CCC1CC2)c1ccc2c(c1)OCCO2 (stereo not given)", "LDH release cytotoxicity / %": -1.81}
{"compound": "Sc1nc2ccccc2s1 [2-Mercaptobenzothiazole]", "LDH release cytotoxicity / %": 0.4}

Return reported LDH release cytotoxicity values for all items listed beneath this line.
1. C=CCOC(=O)c1ccccc1C(=O)OCC=C [Diallyl phthalate]
2. CNC(=O)Oc1cccc2ccccc12 [Carbaryl]

1. -0.551
2. -0.561

---

# System: HepaRG
# assay procedure: LDH release cytotoxicity, % of total lysis control; higher = more cytotoxic
# experimental parameters: 31.6228 µM; 48 h
readout name: LDH release cytotoxicity (%)
One number for each entry, in %.

Record excerpt, results attached:
{"molecule": "O=C(O)Cc1ccccc1Nc1c(Cl)cccc1Cl [Diclofenac sodium]", "LDH release cytotoxicity, %": 1.19}
{"molecule": "Cc1ccn2nc(S(=O)(=O)Nc3c(F)cccc3F)nc2n1 [Flumetsulam]", "LDH release cytotoxicity, %": 0.194}

Provide the reported LDH release cytotoxicity of each entry below, same order.
1. N#CSCSc1nc2ccccc2s1 [2-(Thiocyanomethylthio)benzothiazole]
2. O=C1CCCCC1 [Cyclohexanone]
3. c1ccc(Nc2ccccc2)cc1 [Diphenylamine]

1: -0.754; 2: -0.292; 3: 0.0424

---

Exercise: state measured LDH release cytotoxicity for each of the compounds provided.
# Tested on: HepaRG
# assay procedure: LDH release cytotoxicity, % of total lysis control; higher = more cytotoxic
# experimental parameters: 31.6228 µM; 48 h
Answer by giving the amount and then stating its unit.

{"compound": "CCCCOC(=O)CCCCCCCCC(=O)OCCCC [Dibutyl decanedioate]", "measured target": "HepaRG", "readout name": "LDH release cytotoxicity", "result": "-1.43%"}
{"compound": "Cc1cc(-c2ccc(N)c(C)c2)ccc1N", "measured target": "HepaRG", "readout name": "LDH release cytotoxicity", "result": "2.22%"}
{"compound": "c1cc(-c2ccncc2)ccn1", "measured target": "HepaRG", "readout name": "LDH release cytotoxicity", "result": "24%"}
{"compound": "CC1=NC(=O)N(C(C)(C)C)C(=O)C1Cl (stereo not drawn)", "measured target": "HepaRG", "readout name": "LDH release cytotoxicity", "result": "-1.74%"}
{"compound": "CC1(C)NC(=O)NC1=O", "measured target": "HepaRG", "readout name": "LDH release cytotoxicity", "result": "-1.07%"}

I need LDH release cytotoxicity for every entry listed below, if you could help.
1. CCCc1ccccc1
2. CC(C)CC(C)(O)C#CC(C)(O)CC(C)C (stereo not drawn)
3. CC12CCC3c4ccc(O)cc4CCC3C1CCC2=O (stereo not drawn)
4. Cc1cc(NC(=O)C(=O)O)cc(C)c1Oc1ccc(O)c2c1CCC2
5. O=S1OCC2C(CO1)C1(Cl)C(Cl)=C(Cl)C2(Cl)C1(Cl)Cl (stereo not drawn) [Endosulfan]
6. CCCC(CCC)C(=O)O
7. O=C(O)C(Cl)Cl
8. COc1cc(OC)nc(Sc2cccc(Cl)c2C(=O)O)n1 [Pyrithiobac-sodium]

["1.09%", "0.979%", "-1.9%", "1.17%", "-0.612%", "-1.38%", "-2.34%", "0.654%"]

Sourced from the supplement of paper PMC7840683
